Where do the numbers come from? From ChEMBL document CHEMBL1133403.

# target.entity: Progesterone receptor (Homo sapiens, UniProt P06401)
# Sequence (P06401 whole entry): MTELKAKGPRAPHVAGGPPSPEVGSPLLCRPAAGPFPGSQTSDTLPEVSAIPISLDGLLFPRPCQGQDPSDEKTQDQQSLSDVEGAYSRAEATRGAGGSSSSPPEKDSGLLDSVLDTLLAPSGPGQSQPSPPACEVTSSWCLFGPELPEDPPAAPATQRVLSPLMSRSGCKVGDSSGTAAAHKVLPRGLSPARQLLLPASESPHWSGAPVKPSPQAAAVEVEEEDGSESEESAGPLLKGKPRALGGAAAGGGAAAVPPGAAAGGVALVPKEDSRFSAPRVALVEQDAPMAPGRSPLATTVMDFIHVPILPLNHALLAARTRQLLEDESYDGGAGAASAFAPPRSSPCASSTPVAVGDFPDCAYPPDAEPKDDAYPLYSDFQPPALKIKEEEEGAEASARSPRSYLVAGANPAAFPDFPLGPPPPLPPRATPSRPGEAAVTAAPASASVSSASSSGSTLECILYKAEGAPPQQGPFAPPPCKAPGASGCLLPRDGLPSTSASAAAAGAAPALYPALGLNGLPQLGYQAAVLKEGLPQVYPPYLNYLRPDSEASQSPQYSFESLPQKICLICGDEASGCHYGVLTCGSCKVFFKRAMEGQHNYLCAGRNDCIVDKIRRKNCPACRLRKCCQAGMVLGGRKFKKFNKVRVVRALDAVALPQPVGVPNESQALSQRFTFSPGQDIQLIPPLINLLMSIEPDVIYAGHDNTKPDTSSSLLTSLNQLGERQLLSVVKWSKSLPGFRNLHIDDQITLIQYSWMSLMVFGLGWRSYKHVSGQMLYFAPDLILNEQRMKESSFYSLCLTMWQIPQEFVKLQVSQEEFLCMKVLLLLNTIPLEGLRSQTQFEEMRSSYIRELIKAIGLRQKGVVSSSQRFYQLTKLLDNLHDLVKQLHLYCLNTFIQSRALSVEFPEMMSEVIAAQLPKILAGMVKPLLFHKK
# method.summary: Antagonist activity against human progesterone receptor (hPR) in T47D human breast cancer cell line
# Format: functional, cell-based
So I've got a bunch of compounds here, and I need their IC50 values.
Give bare numbers, in nM.

CC1=CC(C)(C)Nc2ccc(-c3ccc([N+](=O)[O-])s3)cc21 | 70

Each compound below has a recorded value; state its IC50.
1. CC1=CC(C)(C)Nc2ccc(-c3cc(Br)c(C#N)s3)cc21
2. CC1=CC(C)(C)Nc2ccc(-c3c(C)sc(C#N)c3C)cc21
3. CC1=CC(C)(C)Nc2ccc(-c3cc(Br)cs3)cc21
4. CC1=CC(C)(C)Nc2ccc(-c3ccc(C#N)s3)cc21
5. CC1=CC(C)(C)Nc2ccc(-c3sccc3C)cc21

[250, 150, 190, 80, 105]

Each compound below has a recorded value; state its IC50.
1. CC1=CC(C)(C)Nc2ccc(-c3ccc(Cl)s3)cc21
2. CC1=CC(C)(C)Nc2ccc(-c3csc(C#N)c3)cc21
3. CC1=CC(C)(C)Nc2ccc(-c3cccs3)cc21
4. CC1=CC(C)(C)Nc2ccc(-c3sc(C#N)cc3Br)cc21
5. CC1=CC(C)(C)Nc2ccc(-c3ccsc3C#N)cc21
6. CC1=CC(C)(C)Nc2ccc(-c3ccc(C=O)s3)cc21

151
106
700
120
278
78

Each compound below has a recorded value; state its IC50.
1. CC1=CC(C)(C)Nc2ccc(-c3csc(C=O)c3)cc21
2. CC1=CC(C)(C)Nc2ccc(-c3ccc(Br)s3)cc21
3. CC1=CC(C)(C)Nc2ccc(-c3sc(C#N)cc3C)cc21
4. CC1=CC(C)(C)Nc2ccc(-c3cc(C#N)sc3C)cc21

1. 102
2. 71
3. 123
4. 120
